Where do the numbers come from? From patent US20090131317A1.

Parameter pIC50: see the listing below.
- target: T1, Recombinant human TRAIL R2-Fc fusion protein (R&D Systems) (human, UniProt O14763 52-182, limits assumed)
- T1 construct: Bought from R&D Systems; held on protein A-coated acceptor beads in the AlphaQuest/AlphaScreen assay; also called TRAIL R2 receptor; R2 receptor; not shown: Fc part of the bought fusion protein
- T1 sequence (O14763 52-182 limits assumed): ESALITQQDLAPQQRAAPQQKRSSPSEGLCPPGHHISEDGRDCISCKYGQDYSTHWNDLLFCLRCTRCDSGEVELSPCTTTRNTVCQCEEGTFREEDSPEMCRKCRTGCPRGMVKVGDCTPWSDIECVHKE
- test: AlphaQuest competition: displaces biotinylated TRAIL ligand from human TRAIL R2-Fc
pIC50: −log10 of the molar value. Bridge positions count the residues as written; N and C are the ends.

These recorded examples may help you get a feel for the data.
binder | valueReported
Ac-WDCLDRPGRRQCVK-NH2 (disulfide 3-12 (inferred); also: homodimer via diglycolic acid (DIG) linker, site not given here) [peptide homodimer based on the monomer amino acid sequence of SEQ ID NO: 22, DIG linker] | 8.21
Ac-GGSWDCLDNRIGRRQCVKL-NH2 (disulfide 6-16 (inferred)) [peptide monomer based on the amino acid sequence of SEQ ID NO: 20] | ~6.52
Ac-WDCLDRPGRRQCVK-NH2 (disulfide 3-12 (inferred); also: DIG linker moiety conjugated, site not given here) [peptide monomer based on the amino acid sequence of SEQ ID NO: 22 conjugated to a DIG linker moiety] | 5.64 to 5.92
Ac-DCLDNRIGRRQCVKL-NH2 (disulfide 2-12 (inferred)) [peptide monomer based on the amino acid sequence of SEQ ID NO: 25] | ≤ 4.00

Note: attention shifts to another entry.
Any idea what its pIC50 is? The binder is Ac-WDCLDNRIGRRQCVK-NH2 (disulfide 3-13 (inferred)) [peptide monomer based on the amino acid sequence of SEQ ID NO: 28]
~7.10
